Recorded Solubility for the following compounds
Assay: Solubility in PBS
Format: physicochemical

compound | readout-units | Solubility
C[C@@H]1NC(=O)[C@H](C)NC(=O)[C@H](CC(=O)O)NC(=O)[C@H](CC(=O)O)NC(=O)C2(CCCC=CCCCOC(=O)N3CC[C@@](C(=O)N[C@@H](Cc4ccccc4Cl)C(=O)N[C@@H](Cc4csc5ccccc45)C(=O)N[C@@H](C(N)=O)[C@H](C)O)(C3)NC(=O)[C@H]([C@@H](C)O)NC(=O)[C@H](Cc3ccccc3)NC1=O)CCCC=CC[C@]1(CCCN1C(=O)CN=[N+]=[N-])C(=O)N[C@@H](CC(=O)O)C(=O)N[C@@H](CC(C)(C)C)C(=O)N2 (some centres unmarked) | µM | 10
COc1ccccc1C[C@H](NC(=O)[C@]12CCN(C1)C(=O)OCCCC=CCCCC1(CCCC=CC[C@]3(CCCN3C(C)=O)C(=O)N[C@@H](CC(=O)O)C(=O)N[C@@H](CC(C)(C)C)C(=O)N1)C(=O)N[C@@H](CC(=O)O)C(=O)N[C@@H](CC(=O)O)C(=O)N[C@@H](C)C(=O)N[C@@H](C)C(=O)N[C@@H](Cc1ccccc1)C(=O)N[C@@H](CC(N)=O)C(=O)N2)C(=O)N[C@@H](Cc1csc2ccccc12)C(=O)N[C@@H](CCC(N)=O)C(N)=O (some centres unmarked) | µM | 50
CC(=O)N1CCC[C@]12CC=CCCCC1(CCCC=CCCCOC(=O)N3CC[C@@](C(=O)N[C@@H](Cc4ccsc4)C(=O)N[C@@H](Cc4csc5ccccc45)C(=O)N[C@@H](C(N)=O)[C@H](C)O)(C3)NC(=O)[C@H](CC(N)=O)NC(=O)[C@H](Cc3ccccc3)NC(=O)[C@H](C)NC(=O)[C@H](C)NC(=O)[C@H](CN(CC(=O)O)CC(F)(F)F)NC(=O)[C@H](CC(=O)O)NC1=O)NC(=O)[C@H](CC(C)(C)C)NC(=O)[C@H](CC(=O)O)NC2=O (some centres unmarked) [I-948] | µM | 47
CC(=O)N1CCC[C@]12CC=CCCCC1(CCCC=CCCCCCC[C@@](C)(C(=O)N[C@@H](Cc3ccsc3)C(=O)N[C@@H](Cc3csc4ccccc34)C(=O)N[C@@H](Cc3c[nH]cn3)C(N)=O)NC(=O)[C@H](CC(C)C)NC(=O)[C@H](Cc3ccccc3)NC(=O)[C@H](C)NC(=O)[C@H](C)NC(=O)[C@H](CC(=O)O)NC(=O)[C@H](CC(=O)O)NC1=O)NC(=O)[C@H](CC(C)(C)C)NC(=O)[C@H](CC(=O)O)NC2=O (some centres unmarked) | µM | 10
CC(=O)N1CCC[C@]12CC=CCCCC1(CCCC=CCCCCCC[C@@](C)(C(=O)N[C@@H](Cc3ccsc3)C(=O)N[C@@H](Cc3csc4ccccc34)C(N)=O)NC(=O)[C@H](CC(N)=O)NC(=O)[C@H](Cc3ccccc3)NC(=O)[C@H](C)NC(=O)[C@H](C)NC(=O)[C@H](CCC(=O)O)NC(=O)[C@H](CC(=O)O)NC1=O)NC(=O)[C@H](CC(C)(C)C)NC(=O)[C@H](CC(=O)O)NC2=O (some centres unmarked) [I-718] | µM | 38

---

Assay: Solubility in PBS
Type: physicochemical
Recorded Solubility for the following compounds
property-label: Solubility (µM)

compound | recorded-result
CC(=O)N1CCC[C@]12CC=CCCCC1(CCCC=CCCCCCC[C@@](C)(C(=O)N[C@@H](Cc3ccccc3)C(=O)N[C@@H](Cc3csc4ccccc34)C(=O)N[C@@H](CCC(N)=O)C(N)=O)NC(=O)[C@H](CCC(N)=O)NC(=O)[C@H](Cc3cccc(C(F)(F)F)c3)NC(=O)[C@H](C)NC(=O)[C@H](C)NC(=O)[C@H](CC(=O)O)NC(=O)[C@H](CC(=O)O)NC1=O)NC(=O)[C@H](C)NC(=O)[C@H](CC(=O)O)NC2=O (some centres unmarked) [I-378] | 50
CC(=O)N1CCC[C@]12CC=CCCCC1(CCCC=CCCCOC(=O)N3CC[C@@](C(=O)N[C@@H](Cc4ccccc4Cl)C(=O)N[C@@H](Cc4csc5ccccc45)C(=O)N[C@@H](CCC(N)=O)C(N)=O)(C3)NC(=O)[C@H](Cc3ccccc3C(F)(F)F)NC(=O)[C@H](Cc3ccccc3)NC(=O)[C@H](C)NC(=O)[C@H](C)NC(=O)[C@H](CC(=O)O)NC(=O)[C@H](CC(=O)O)NC1=O)NC(=O)[C@H](CC(C)(C)C)NC(=O)[C@H](CC(=O)O)NC2=O (some centres unmarked) [I-1367] | 10

---

Test: Solubility in PBS
Format: physicochemical

compound | Solubility
CC(=O)N1CCC[C@]12CC=CCCCC1(CCCC=CCCCCCC[C@@](C)(C(=O)N[C@@H](Cc3ccccc3)C(=O)N[C@@H](Cc3csc4ccccc34)C(=O)N[C@@H](CCC(N)=O)C(N)=O)NC(=O)[C@H](CCC(N)=O)NC(=O)[C@H](Cc3cccs3)NC(=O)[C@H](C)NC(=O)[C@H](C)NC(=O)[C@H](CCC(=O)O)NC(=O)[C@H](CC(=O)O)NC1=O)NC(=O)[C@H](C)NC(=O)[C@H](CC(=O)O)NC2=O (some centres unmarked) [I-487] | 44 µM
CC(=O)N1CCC[C@]12CC=CCCCC1(CCCC=CCCCCCC[C@@](C)(C(=O)N[C@@H](Cc3ccccc3)C(=O)N[C@@H](Cc3c[nH]c4ccccc34)C(=O)N[C@@H](CCC(N)=O)C(N)=O)NC(=O)[C@H](C(C)C)NC(=O)[C@H](Cc3ccccc3)NC(=O)[C@H](C)NC(=O)[C@H](C)NC(=O)[C@H](Cc3ccc(O)cc3)NC(=O)[C@H](CC(=O)O)NC1=O)NC(=O)[C@H](C)NC(=O)[C@H](CC(=O)O)NC2=O (some centres unmarked) [I-274] | 10 µM

---

Recorded CHI Log D for the following molecules
Experiment: CHI Log D procedure
Type: physicochemical
Settings: pH 7.4

molecule | CHI Log D
CC(=O)N[C@@H](Cc1ccccc1)C(=O)N[C@@H](CC(=O)O)C(=O)N[C@@H](C)C(=O)N[C@]1(C)CCCCCCC=CCOC(=O)N2CC[C@@](C(=O)N[C@@H](Cc3ccccc3)C(=O)N[C@@H](Cc3c[nH]c4ccccc34)C(=O)N[C@@H](CCC(N)=O)C(N)=O)(C2)NC(=O)[C@H](C(C)C)NC(=O)[C@H](CCc2ccc(O)cc2)NC(=O)[C@H](C)NC(=O)[C@H](C)NC(=O)[C@H](CC(=O)O)NC(=O)[C@H](CC(=O)O)NC1=O [I-120] | 1.243
CC[C@H](C)[C@@H]1NC(=O)[C@H](CC(=O)O)NC(=O)[C@]2(CC=CCCCC3(CCCC=CCOC(=O)N(C)CCC[C@@](C)(C(=O)N[C@@H](Cc4ccccc4)C(=O)N[C@@H](Cc4c[nH]c5ccccc45)C(=O)N[C@@H](Cc4c[nH]cn4)C(N)=O)NC(=O)[C@H](CCC(N)=O)NC(=O)[C@H](Cc4ccccc4)NC(=O)[C@H](C)NC(=O)[C@H](C)NC(=O)[C@H](CC(=O)O)NC(=O)[C@H](CC(=O)O)NC3=O)NC1=O)CCCN2C(C)=O (some centres unmarked) [I-190] | 1.736
CC[C@H](C)[C@@H]1NC(=O)[C@H](CC(=O)O)NC(=O)[C@]2(CC=CCCCC3(CCCC=CCCCCCC[C@@](C)(C(=O)N[C@@H](Cc4ccccc4)C(=O)N[C@@H](Cc4csc5ccccc45)C(=O)N[C@@H](Cc4c[nH]cn4)C(N)=O)NC(=O)[C@H](CCC(N)=O)NC(=O)[C@H](Cc4ccccc4)NC(=O)[C@H](C)NC(=O)[C@H](C)NC(=O)[C@H](CC(=O)O)NC(=O)[C@H](CC(=O)O)NC3=O)NC1=O)CCCN2C(C)=O (some centres unmarked) [I-580] | 2.436
CC(=O)N1CCC[C@]12CC=CCCCC1(CCCC=CCCCCCC[C@@](C)(C(=O)N[C@@H](Cc3ccccc3Cl)C(=O)N[C@@H](Cc3csc4ccccc34)C(=O)N[C@@H](CCC(N)=O)C(N)=O)NC(=O)[C@H]([C@@H](C)O)NC(=O)[C@H](Cc3ccccc3)NC(=O)[C@H](C)NC(=O)[C@H](C)NC(=O)[C@H](CC(=O)O)NC(=O)[C@H](CC(=O)O)NC1=O)NC(=O)[C@H](CC(C)(C)C)NC(=O)[C@H](CC(=O)O)NC2=O (some centres unmarked) [I-1086] | 2.709
CC(=O)N1CCC[C@]12CC=CCCCC1(CCCC=CCCCCCC[C@@](C)(C(=O)N[C@@H](C)C(=O)N[C@@H](Cc3c[nH]c4ccccc34)C(=O)N[C@@H](CCC(N)=O)C(N)=O)NC(=O)[C@H](C(C)C)NC(=O)[C@H](Cc3ccccc3)NC(=O)[C@H](C)NC(=O)[C@H](C)NC(=O)[C@H](CC(=O)O)NC(=O)[C@H](CC(=O)O)NC1=O)NC(=O)[C@H](C)NC(=O)[C@H](CC(=O)O)NC2=O (some centres unmarked) [I-356] | 1.619
